Origin of measurements: paper PMC7419507

viability at 72 h, 0.000190735 uM values for the compounds below.
experiment: Cytotoxicity assay (CellTiter-Glo, 72 h), MESO-1; type: cell-based; conditions: human, MESO-1 malignant pleural mesothelioma cells, conc 0.000190735 uM; raw replicate data; read-out: MESO1 viability (%)
Please reply with the bare figure in % and do not write the unit itself.

See these solved cases before continuing.
[
  {
    "compound": "CO[C@@H]1/C=C/C=C/[C@@H](C)C[C@@H](C)C(=O)C[C@H](O)/C(C)=C/[C@@H](C)C(=O)C[C@@H]([C@H](C)C[C@@H]2CC[C@@H](O)[C@H](OC)C2)OC(=O)[C@@H]2CCCCN2C(=O)C(=O)[C@]2(O)O[C@@H](CC[C@H]2C)C1",
    "viability at 72 h, 0.000190735 uM / %": 93.5
  },
  {
    "compound": "CO[C@@H]1C[C@H](C[C@@H](C)[C@@H]2CC(=O)[C@H](C)/C=C(\\C)[C@@H](O)[C@@H](OC)C(=O)[C@H](C)C[C@H](C)/C=C/C=C/C=C(\\C)[C@H](O)C[C@@H]3CC[C@@H](C)[C@@](O)(O3)C(=O)C(=O)N3CCCC[C@H]3C(=O)O2)CC[C@H]1O [Compound 17, (16R)-16-O-demethyl rapamycin]",
    "viability at 72 h, 0.000190735 uM / %": 89.1
  },
  {
    "compound": "COC1CC2CCC(C)C(O)(O2)C(=O)C(=O)N2CCCCC2C(=O)OC(C(C)CC2CCC(O)C(OC)C2)CC(=O)C(C)C=C(C)C(O)CC(=O)C(C)C=C(C)C=CC=CC=C1C (stereo not shown)",
    "viability at 72 h, 0.000190735 uM / %": 97.8
  }
]

Then this compound:
Looking up CO[C@H]1C[C@@H]2CC[C@@H](C)[C@@](O)(O2)C(=O)C(=O)N2CCCC[C@H]2C(=O)O[C@H]([C@H](C)C[C@@H]2CC[C@@H](O)[C@H](OC)C2)CC(=O)[C@H](C)/C=C(\C)[C@@H](O)CC(=O)[C@H](C)C[C@H](C)/C=C/C=C(C)/C=C/1C , I see its viability at 72 h, 0.000190735 uM listed as 97.4
